The entries below are paired with their reported FACS MFI.
tested_system: mouse Claudine18.2 (mouse) (UniProt P56857)
assay_method_text: FACS on CHOK1-m18.2 cells
I only need the number, thanks.

{"columns": ["binder", "FACS MFI"],
 "data": [
  ["Ab35 (antibody, V domains shown) VH: DVFLQESGPGLVKPSQSLSLTCTVTGYSITSDYAWNWIRQFPGNKLEWVTYIGYSGTTSYNPSLKSRISITRDTSKNQFFLQLNSVSTEDTATYYCVRRGSYYGSYWFFDVWGAGTTVTVSS VL: QVVLSQSPAILSASPGEKVTMTCRASSSVSYMHWYQQKPGSSPKPWIYATSNLASGVPPHFSGSGSGTSYSLTISRVEAEDAATYYCQQWTSNPPTFGGGTKLEIK", 9610],
  ["Ab19 (antibody, V domains shown) VH: EVMLVESGGDLVKPGGSLKLSCAASGFSFSRYTMSWVRQTPEKRLEWVATVSVGSGNTYYLDSVKGRFTISRDNAKNTLFLQMSSLRSEDTALYYCARMGQTQRNAVDYWGQGTSVTVSS VL: DIVMTQSPSSLSVSAGEKVTMSCKSSQSLFNSGNQKNYLAWYQQKPGQPPKLLIYGASTRESGVPDRFTGSGSGTDFTLTISNVQAEDLAVYLCQNDHSFPLTFGAGTKLEL", 13400],
  ["Ab09 (antibody, V domains shown) VH: EVQLQQSGPELVKPGTSVKMSCKASGYTFTDYNMHWVKLSHGKSLEWIGYINPNNGGTIYNQRFKGKATLTVNKSSRTAYMDLRSLTSEDSAVYYCARQGYYGNSMDYWGQGNSVTVSS VL: DIVMTQSPSSLTVTPGERVTMSCKSSQSLLNGGNQRNYLTWYQQKPGQPPKLLIYWASTRESGVPDRFAGSGSGTDFTLTISRVQAEDLSFYYCQNSYFYPFTFGSGTKLDLR", 12600]
]}

Consider the binder Ab25 (antibody, V domains shown) VH: EAQLQQSGPELVKPGASVKIFCKASGYTFTDYYINWVKQSHGKSLEWIGDINPNNGGTTYNQKFKGKATLTVDKSSSTASMELRRLTSEDSSVYYCARRDAMDYWGQGTSVTVSS VL: DIVMTQSQKFMSTTVGDRVSITCTASQNVGPAVAWYQQKPGQSPKLLIYSASRRFTGVPDRFTGSGSGTVFTLTINNVQSEDLADYFCQQYISYPLTFGAGTKLELK . State its measured FACS MFI.
23400

Entry Ab31 (antibody, V domains shown) VH: QIQLAQSGPELKKPGETVKISCKASGYSFTNYGMNWVKQAPGKGLKWMGWINTYSGETKYADDFKGRFDFSLETSARTAYLQIKNLKIEDTATYFCARRDAMDYWGQGTSVTVSS VL: DIVMTQAAPSVPVTPGESVSISCRSSKSLLNSNGNTYLYWFLQRPGQSPQLLIYRMSNLASGVPDRFSGSGSGTAFTLRISRVEAEDVGVYYCMQHLEFPFTFGSGTKLEIK needs its FACS MFI filled in; supply it.
7790

Input Ab13 (antibody, V domains shown) VH: EVRLVESGGGLVKPGGSLKLSCAGSGFTFSSYTMSWVRQTPEKRLEWVATITIGVNIYYLDSVKGRFTISRDNAKNTLYLQMNSLRSEDTALYYCTRLGQTQRNAMDYWGQGTSVTVSS VL: DIVMTQSPTSLSVSAGEKVTMTCKSSQSLLNSGNQKNYLAWYQEKPGQPPKLLIYGASTRESGVPDRFTGSGSGTDFTLTISSVQAEDLAVYYCQNNHFYPLTFGAGTKLELK , output reported FACS MFI.
12500

Kindly indicate its recorded FACS MFI. Item: Ab17 (antibody, V domains shown) VH: QVQLKESGPGLVAPSQSLSITCTVSGFSLTSYAISWVRQPPGKGLEWLGEIWTGGGTNYNSALKSRLSISKDNSKSQVFLKMNSLQTDDTARYYCGRLSYGNSLDYWGQGTTLTVSS VL: DIVMTQSPSSLTVTAGEKVTMSCKSSQSLLNSGNQKNYLTWYQQKPGQPPKLLIYWASTRESGVPDRFTGSGSGTDFTLTVSSVQAEDLAVYYCQNNFIYPLTFGPGTKLELK
13300

Please supply the value of reported FACS MFI for the item Ab06 (antibody, V domains shown) VH: EVQLVASGGGLVKPGGSLKLSCAASGITFRSYAMSWVRQTPEKRLEWVATITDGGSYIFYPDNVKGRFTISGDHAKNNLYLQMSHLKSEDTALYFCVRLYYGNSFAYWGQGTLVTVSA VL: DIVMTQSPSSLTVTAGEKVTLNCKSSQSLFNSGNQKNYLTWYQQKPGQPPKLLIYWASTRESGVPDRFTGSGSGTDFTLTFSSVQAEDLAVYYCQNAYIYPFTFGSGTKLEIK
13200

Give FACS MFI for the following binder: Ab22 (antibody, V domains shown) VH: EVMLVESGGGLVKPGGSLKLSCAASGFTFSSYTMSWVRQTPEKRLEWVATIIGGYGNTYYADSVKGRFTISRDSAKNTLYLQMISLRSEDTALYYCTRLGQTQRNAMDYWGQGTSVTVSS VL: DILMTQSPSSLSVSAGEKVTMSCKSSQSLLNSGNQKNYLAWYQQKPGQPPKLLIYGASTRESGVPDTFTGSGSGTDFTLTISSVQAEDLAVYYCQNDYYYPFTFGAGTKLEL
15500

Item Ab16 (antibody, V domains shown) VH: EVMLVESGGGLVKPGGSLKLSCAASGFTFNSYTMSWVRQTPEKRLEWVATITVIGGNTYYLDSVKGRFTISIDNGKNTLYLQMSSLRSEDTALYYCARMGQTQRNAMDYWGQGTSVTVSS VL: DIVMTQSPSSLSVSAGQKVTMRCKSSQSLLNSGNQKNYLAWYQQKLGQPPKLLIYGASTRESGVPDRFSGSGSGTDFTLTITSVQAEDLAVYYCQNDYSFPLTFGAGTKLELK : provide FACS MFI
14300

The values you see were collected from patent US20230095569A1.
